measuredTarget: PDE4D5: full-length human PDE4D5 isozyme (Homo sapiens, UniProt Q08499)
Sequence (Q08499 with tags, fused parts or gaps isoform Q08499-6): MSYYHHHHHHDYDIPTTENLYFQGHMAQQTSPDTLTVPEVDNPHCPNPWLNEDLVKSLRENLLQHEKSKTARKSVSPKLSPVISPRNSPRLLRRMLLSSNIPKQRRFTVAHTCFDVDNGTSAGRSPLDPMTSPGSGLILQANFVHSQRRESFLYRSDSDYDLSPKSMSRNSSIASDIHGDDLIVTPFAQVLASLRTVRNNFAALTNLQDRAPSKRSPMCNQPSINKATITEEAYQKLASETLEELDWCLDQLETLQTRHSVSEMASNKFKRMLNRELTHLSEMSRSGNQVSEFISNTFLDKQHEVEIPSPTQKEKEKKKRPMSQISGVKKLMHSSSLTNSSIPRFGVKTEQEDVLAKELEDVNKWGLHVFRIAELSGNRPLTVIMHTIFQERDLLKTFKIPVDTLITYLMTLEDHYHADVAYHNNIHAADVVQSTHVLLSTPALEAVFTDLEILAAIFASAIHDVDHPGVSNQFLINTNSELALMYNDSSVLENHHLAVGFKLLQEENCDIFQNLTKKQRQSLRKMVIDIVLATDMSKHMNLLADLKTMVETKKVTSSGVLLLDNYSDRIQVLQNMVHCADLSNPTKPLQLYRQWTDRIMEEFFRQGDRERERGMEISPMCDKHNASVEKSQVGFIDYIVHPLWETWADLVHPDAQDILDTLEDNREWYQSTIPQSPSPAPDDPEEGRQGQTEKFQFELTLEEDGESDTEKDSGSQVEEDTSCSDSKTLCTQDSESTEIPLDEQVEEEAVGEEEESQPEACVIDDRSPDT
experimentNotes: PDE4 IC50 determination by Scintillation Proximity Assay (SPA), full-length PDE4D5
conditions: cell lysate, [3H]cAMP SPA
Collected IC50 values appear next to each entry.

Use these answered entries as a reference point.
compound | IC50
COc1ccc(-c2cnc3[nH]ccc3c2)cc1OC [Compound 82] | < 10 µM
COc1ccc(-c2cn(C(=O)c3c(OCC(F)(F)F)ccc4ccccc34)c3ncccc23)cc1OC [Compound 112] | < 10 µM
c1cnc2[nH]cc(-c3ccc4c(c3)OCO4)c2c1 [Compound 90] | > 10 µM
COc1ccc(-c2cn(C(=O)c3cccnc3)c3ncccc23)cc1OC [Compound 56] | < 10 µM
COc1ncc(-c2cn(S(=O)(=O)Cc3ccccc3)c3ncccc23)cn1 [Compound 45] | < 10 µM

Prompt: I'd like to know its IC50. The compound in question is COC(=O)c1cccc(C#Cc2c[nH]c3ncc(-c4ccc(OC)c(OC)c4)cc23)c1 [Compound 139]
Completion: < 10 µM

Prompt: I'd like to know its IC50. The compound in question is COc1ccc(-c2cn(S(=O)(=O)c3cccc4cnccc34)c3ncccc23)cc1OC [Compound 14]
Completion: < 10 µM

Prompt: I'd like to know its IC50. The compound in question is CCOc1ccccc1C(=O)n1ccc2cc(-c3ccc(OC)c(OC)c3)cnc21 [Compound 83]
Completion: < 10 µM

Prompt: I'd like to know its IC50. The compound in question is COc1ccc(-c2cn(C(=O)c3ccc(F)c4ccccc34)c3ncccc23)cc1OC [Compound 64]
Completion: < 10 µM

Prompt: I'd like to know its IC50. The compound in question is COc1ccc(-c2c[nH]c3ncccc23)cc1OC [Compound 1]
Completion: < 10 µM

Prompt: I'd like to know its IC50. The compound in question is COc1ccc(-c2cn(C(=O)c3cc(C)nc4ccccc34)c3ncccc23)cc1OC [Compound 116]
Completion: < 10 µM

Prompt: I'd like to know its IC50. The compound in question is COc1ccc(NC(=O)n2cc(-c3ccc(OC)c(OC)c3)c3cccnc32)cc1 [Compound 39]
Completion: > 10 µM
